# target.of.assay: T1, CD3 epsilon homodimer protein (UniProt P07766 23-126)
# T1 construct: also called CD3 (CD3 epsilon)
# measurement.protocol: SPR Biacore T200, CD3e homodimer on chip, vs unaltered GLS3000 antibody
reported.property: ratio of amounts bound (Z=Y/X)

binder: GLS3000 Q90S (antibody, name in Kabat numbering, V domains shown, one-arm IgG as m2) VH: QVQLVESGGGVVQPGRSLRLSCAASGFTFSNAWMHWVRQAPGKGLEWVAQIKAKSNNYATYYAESVKGRFTISRDDSKNSLYLQMNSLKTEDTAVYYCRYVHYGAYYGVDAWGQGTTVTVSS VL: DIVMTQSPLSLPVTPGEPASISCRSSQSLVHSNRNTYLHWYQQKPGQAPRLLIYKVSNRFSGVPDRFSGSGSGTDFTLKISRVEAEDVGVYYCGSGTQVPYTFGQGTKLEIK
reported.property: ratio of amounts bound (Z=Y/X)
data.value: 0.73
--
binder: GLS3000 R54Q (antibody, name in Kabat numbering, V domains shown, one-arm IgG as m2) VH: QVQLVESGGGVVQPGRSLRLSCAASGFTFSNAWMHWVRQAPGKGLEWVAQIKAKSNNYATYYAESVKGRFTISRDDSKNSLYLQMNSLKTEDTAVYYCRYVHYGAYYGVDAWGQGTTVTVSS VL: DIVMTQSPLSLPVTPGEPASISCRSSQSLVHSNRNTYLHWYQQKPGQAPRLLIYKVSNQFSGVPDRFSGSGSGTDFTLKISRVEAEDVGVYYCGQGTQVPYTFGQGTKLEIK
reported.property: ratio of amounts bound (Z=Y/X)
data.value: 0.68
--
binder: GLS3000 F55R (antibody, name in Kabat numbering, V domains shown, one-arm IgG as m2) VH: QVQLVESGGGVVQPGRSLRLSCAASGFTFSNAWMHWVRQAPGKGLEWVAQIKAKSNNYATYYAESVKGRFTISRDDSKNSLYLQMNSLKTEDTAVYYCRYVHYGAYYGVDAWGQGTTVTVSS VL: DIVMTQSPLSLPVTPGEPASISCRSSQSLVHSNRNTYLHWYQQKPGQAPRLLIYKVSNRRSGVPDRFSGSGSGTDFTLKISRVEAEDVGVYYCGQGTQVPYTFGQGTKLEIK
reported.property: ratio of amounts bound (Z=Y/X)
data.value: 1.31
--
binder: GLS3000 V94F (antibody, name in Kabat numbering, V domains shown, one-arm IgG as m2) VH: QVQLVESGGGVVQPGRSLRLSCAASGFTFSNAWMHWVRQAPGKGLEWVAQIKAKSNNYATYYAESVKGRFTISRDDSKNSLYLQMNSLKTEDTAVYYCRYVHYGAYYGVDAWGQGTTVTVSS VL: DIVMTQSPLSLPVTPGEPASISCRSSQSLVHSNRNTYLHWYQQKPGQAPRLLIYKVSNRFSGVPDRFSGSGSGTDFTLKISRVEAEDVGVYYCGQGTQFPYTFGQGTKLEIK
reported.property: ratio of amounts bound (Z=Y/X)
data.value: 0.71
--
binder: GLS3000 R54W (antibody, name in Kabat numbering, V domains shown, one-arm IgG as m2) VH: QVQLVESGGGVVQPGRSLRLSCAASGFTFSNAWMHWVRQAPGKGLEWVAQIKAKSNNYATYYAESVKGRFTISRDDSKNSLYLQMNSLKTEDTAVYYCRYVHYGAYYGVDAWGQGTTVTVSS VL: DIVMTQSPLSLPVTPGEPASISCRSSQSLVHSNRNTYLHWYQQKPGQAPRLLIYKVSNWFSGVPDRFSGSGSGTDFTLKISRVEAEDVGVYYCGQGTQVPYTFGQGTKLEIK
reported.property: ratio of amounts bound (Z=Y/X)
data.value: 0.78
--
binder: GLS3000 S27eE (antibody, name in Kabat numbering, V domains shown, one-arm IgG as m2) VH: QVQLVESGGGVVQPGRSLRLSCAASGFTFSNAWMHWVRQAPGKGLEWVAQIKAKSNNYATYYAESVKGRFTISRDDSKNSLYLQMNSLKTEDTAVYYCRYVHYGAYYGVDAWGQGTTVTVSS VL: DIVMTQSPLSLPVTPGEPASISCRSSQSLVHENRNTYLHWYQQKPGQAPRLLIYKVSNRFSGVPDRFSGSGSGTDFTLKISRVEAEDVGVYYCGQGTQVPYTFGQGTKLEIK
reported.property: ratio of amounts bound (Z=Y/X)
data.value: 0.76
--
binder: GLS3000 S25T (antibody, name in Kabat numbering, V domains shown, one-arm IgG as m2) VH: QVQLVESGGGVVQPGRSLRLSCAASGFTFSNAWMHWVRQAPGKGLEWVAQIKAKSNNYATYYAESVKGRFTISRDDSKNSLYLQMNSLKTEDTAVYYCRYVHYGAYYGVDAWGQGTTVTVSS VL: DIVMTQSPLSLPVTPGEPASISCRTSQSLVHSNRNTYLHWYQQKPGQAPRLLIYKVSNRFSGVPDRFSGSGSGTDFTLKISRVEAEDVGVYYCGQGTQVPYTFGQGTKLEIK
reported.property: ratio of amounts bound (Z=Y/X)
data.value: 0.83
--
binder: GLS3000 V94A (antibody, name in Kabat numbering, V domains shown, one-arm IgG as m2) VH: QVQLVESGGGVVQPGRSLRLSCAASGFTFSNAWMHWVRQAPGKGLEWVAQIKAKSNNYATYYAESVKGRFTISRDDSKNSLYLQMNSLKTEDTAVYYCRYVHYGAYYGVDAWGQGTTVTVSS VL: DIVMTQSPLSLPVTPGEPASISCRSSQSLVHSNRNTYLHWYQQKPGQAPRLLIYKVSNRFSGVPDRFSGSGSGTDFTLKISRVEAEDVGVYYCGQGTQAPYTFGQGTKLEIK
reported.property: ratio of amounts bound (Z=Y/X)
data.value: 1.05
--
binder: GLS3000 R29I (antibody, name in Kabat numbering, V domains shown, one-arm IgG as m2) VH: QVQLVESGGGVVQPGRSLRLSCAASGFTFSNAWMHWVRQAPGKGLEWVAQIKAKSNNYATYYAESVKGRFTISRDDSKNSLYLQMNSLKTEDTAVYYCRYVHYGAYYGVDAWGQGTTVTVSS VL: DIVMTQSPLSLPVTPGEPASISCRSSQSLVHSNINTYLHWYQQKPGQAPRLLIYKVSNRFSGVPDRFSGSGSGTDFTLKISRVEAEDVGVYYCGQGTQVPYTFGQGTKLEIK
reported.property: ratio of amounts bound (Z=Y/X)
data.value: 0.37
--
binder: GLS3000 K50E (antibody, name in Kabat numbering, V domains shown, one-arm IgG as m2) VH: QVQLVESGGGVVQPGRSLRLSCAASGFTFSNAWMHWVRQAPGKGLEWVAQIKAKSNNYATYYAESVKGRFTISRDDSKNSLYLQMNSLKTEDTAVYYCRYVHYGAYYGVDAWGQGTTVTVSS VL: DIVMTQSPLSLPVTPGEPASISCRSSQSLVHSNRNTYLHWYQQKPGQAPRLLIYEVSNRFSGVPDRFSGSGSGTDFTLKISRVEAEDVGVYYCGQGTQVPYTFGQGTKLEIK
reported.property: ratio of amounts bound (Z=Y/X)
data.value: 0.24
